Where do these numbers come from? They come from paper PMC4969713.

Test: Brain/plasma/CSF distribution in Sprague Dawley rats
Format: in vivo
Condition Details: Sprague Dawley, rat, plasma, iv, 2 mg/kg
Recorded Metric: Tmax

Quick one: Tmax for Cc1ccc2c(c1)c1c(n2CCc2ccccc2)CCN(C)C1 ?
4.98 min

====

Test: Pharmacokinetics in dogs
Assay type: in vivo, dogs (Beagle)
Condition Details: Beagle, dog, blood, po, 10 mg/kg
Recorded Metric: half-life (h)
Numeric only. Scale: h

Quick one: half-life for Cc1ccc2c(c1)c1c(n2CCc2ccccc2)CCN(C)C1 ?
6.1

====

Test: Pharmacokinetics in Rhesus monkeys
Assay type: in vivo
Condition Details: rhesus monkey, in vivo, po, 10 mg/kg, Kel, monkey 34920, PO 10 mg/kg
Recorded Metric: k el (s⁻¹)
Numeric only. Scale: s⁻¹

Quick one: k el for Cc1ccc2c(c1)c1c(n2CCc2ccccc2)CCN(C)C1 [AVN-101] ?
2.67e-05
